target_under_test: Human M4 (Homo sapiens, UniProt P08173)
Construct: Human or rat M4 cDNA, along with the chimeric G protein Gqi5, were transfected into Chinese hamster ovary (CHO-K1) cells; expressed in transfected cells; host or cells: CHO-K1 (Chinese hamster ovary, ATCC), stably co-expressing Gqi5
Sequence (P08173 whole entry): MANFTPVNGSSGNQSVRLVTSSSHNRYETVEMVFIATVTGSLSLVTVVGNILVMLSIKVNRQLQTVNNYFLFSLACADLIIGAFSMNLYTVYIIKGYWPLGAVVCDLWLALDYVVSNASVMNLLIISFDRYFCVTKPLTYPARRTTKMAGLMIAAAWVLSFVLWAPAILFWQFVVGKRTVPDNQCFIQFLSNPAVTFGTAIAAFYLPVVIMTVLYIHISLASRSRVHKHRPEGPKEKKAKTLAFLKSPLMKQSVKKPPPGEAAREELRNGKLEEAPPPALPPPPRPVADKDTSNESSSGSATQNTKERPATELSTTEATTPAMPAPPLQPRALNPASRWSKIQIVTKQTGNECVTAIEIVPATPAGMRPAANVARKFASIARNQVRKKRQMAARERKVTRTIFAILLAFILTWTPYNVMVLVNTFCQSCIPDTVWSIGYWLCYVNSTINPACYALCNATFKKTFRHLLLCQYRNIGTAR
run_description: mAChR M4 cell-based functional assay (calcium flux, decrease of EC80 acetylcholine response)
condition_context: % ACh maximum at 30 μM; read-out: Human M4 Emin
metric_name: remaining activity at 30 µM (%)
State the answer as a number, implicitly in %.

[Q] Requested read-out: remaining activity at 30 µM. Entry: [2H]C([2H])(C1CCOCC1)N1C[C@H]2C[C@H](Nc3nnc(-c4ccc5c(cnn5C)c4)cc3C(F)(F)F)C[C@H]2C1 [Example 144]
[A] 3

[Q] Another molecule to look at: Cc1ccc(F)cc1-c1cc(C(F)(F)F)c(N[C@H]2C[C@@H]3CN(Cc4ccccn4)C[C@@H]3C2)nn1 [Example 103]
[A] 3

[Q] Another molecule to look at: Cc1ccc(F)cc1-c1cc(C#N)c(N[C@H]2C[C@@H]3CN(CC4CCOCC4)C[C@@H]3C2)nn1 [Example 146]
[A] 6

[Q] Another molecule to look at: FC1(F)CCCN(c2cc(C(F)(F)F)c(N[C@H]3C[C@@H]4CN(CC5CCOCC5)C[C@@H]4C3)nn2)C1 [Example 138]
[A] 2

[Q] Another molecule to look at: F[C@@H]1CCN(c2cc(C(F)(F)F)c(N[C@H]3C[C@@H]4CN(CC5CCOCC5)C[C@@H]4C3)nn2)C1 [Example 140]
[A] 2

[Q] Another molecule to look at: F[C@H]1CCN(c2cc(C(F)(F)F)c(N[C@H]3C[C@@H]4CN(CC5CCOCC5)C[C@@H]4C3)nn2)C1 [Example 139]
[A] 2

* * *

target_under_test: Human M4 (Homo sapiens)
Construct: Human or rat M4 cDNA, along with the chimeric G protein Gqi5, were transfected into Chinese hamster ovary (CHO-K1) cells
run_description: mAChR M4 cell-based functional assay (calcium flux, decrease of EC80 acetylcholine response)
condition_context: M4/Gqi5/CHO-K1 cells; decrease of response to EC80 acetylcholine
Experimental: Human or rat M4 cDNA, along with the chimeric G protein Gqi5, were transfected into Chinese hamster ovary (CHO-K1) cells purchased from the American Type Culture Collection using Lipofectamine2000. […] Calcium flux was measured using the Functional Drug Screening System (FDSS) 6000 or 7000 (Hamamatsu Corporation, Tokyo, Japan) as an increase in the fluorescent static ratio. […] Agonist activity was analyzed as a concentration-dependent increase in calcium mobilization upon compound addition. […]
metric_name: IC50 (nM)
State the answer as a number, implicitly in nM.

[Q] Requested read-out: IC50. Entry: N#Cc1c(F)ccc(-c2cc(C(F)(F)F)c(N[C@H]3C[C@@H]4CN(CC5CCOCC5)C[C@@H]4C3)nn2)c1F [Example 55]
[A] 401

[Q] Another compound to look at: Fc1ccc(F)c(-c2cc(C(F)(F)F)c(N[C@H]3C[C@@H]4CN(CC5CCOCC5)C[C@@H]4C3)nn2)c1 [Example 38]
[A] 207

[Q] Another compound to look at: [2H]C([2H])(C1CCOCC1)N1C[C@H]2C[C@H](Nc3nnc(-c4ccc(C)cc4C)cc3C(F)(F)F)C[C@H]2C1 [Example 126]
[A] 94.2

* * *

target_under_test: Human M4 (Homo sapiens, UniProt P08173)
Construct: Human or rat M4 cDNA, along with the chimeric G protein Gqi5, were transfected into Chinese hamster ovary (CHO-K1) cells; expressed in transfected cells; host or cells: CHO-K1 (Chinese hamster ovary, ATCC), stably co-expressing Gqi5
run_description: mAChR M4 cell-based functional assay (calcium flux, decrease of EC80 acetylcholine response)
condition_context: % ACh maximum at 30 μM; read-out: Human M4 Emin
Procedure: Human or rat M4 cDNA, along with the chimeric G protein Gqi5, were transfected into Chinese hamster ovary (CHO-K1) cells purchased from the American Type Culture Collection using Lipofectamine2000. […] Calcium flux was measured using the Functional Drug Screening System (FDSS) 6000 or 7000 (Hamamatsu Corporation, Tokyo, Japan) as an increase in the fluorescent static ratio. […] Agonist activity was analyzed as a concentration-dependent increase in calcium mobilization upon compound addition. […]
metric_name: remaining activity at 30 µM (%)
State the answer as a number, implicitly in %.

[Q] Form entry - test system: Human M4 (Homo sapiens, UniProt P08173); read-out: remaining activity at 30 µM; compound: COc1ccc(-c2cc(C(F)(F)F)c(N[C@H]3C[C@@H]4CN(CC5CCOCC5)C[C@@H]4C3)nn2)c(F)c1F [Example 62]
[A] 3

[Q] Another compound to look at: Cn1cc2cc(-c3cc(C(F)(F)F)c(N[C@H]4C[C@@H]5CN(CC6CCCOC6)C[C@@H]5C4)nn3)ccc2n1 (single isomer, unassigned) [Example 36]
[A] 4

[Q] Another compound to look at: Fc1ccc(F)c(-c2cc(C(F)(F)F)c(N[C@H]3C[C@@H]4CN(C[C@@H]5COCCO5)C[C@@H]4C3)nn2)c1 [Example 69]
[A] 3

[Q] Another compound to look at: Cn1cc2cc(-c3cc(C#N)c(N[C@H]4C[C@@H]5CN(C[C@@H]6CCOC6)C[C@@H]5C4)nn3)ccc2n1 [Example 154]
[A] 15

[Q] Another compound to look at: COc1ccc(-c2cc(C(F)(F)F)c(N[C@H]3C[C@@H]4CN(CC5CCOCC5)C[C@@H]4C3)nn2)c(C)c1 [Example 77]
[A] 3

[Q] Another compound to look at: [2H]C([2H])(C1CCOCC1)N1C[C@H]2C[C@H](Nc3cc(C(F)(F)F)c(-c4cc(F)ccc4Cl)nn3)C[C@H]2C1 [Example 129]
[A] 2

* * *

target_under_test: Human M4 (Homo sapiens, UniProt P08173)
Construct: Human or rat M4 cDNA, along with the chimeric G protein Gqi5, were transfected into Chinese hamster ovary (CHO-K1) cells
run_description: mAChR M4 cell-based functional assay (calcium flux, decrease of EC80 acetylcholine response)
condition_context: M4/Gqi5/CHO-K1 cells; decrease of response to EC80 acetylcholine
metric_name: IC50 (nM)
State the answer as a number, implicitly in nM.

[Q] Requested read-out: IC50. Entry: Cn1cc2cc(-c3cc(C#N)c(N[C@H]4C[C@@H]5CN(CC6CCOCC6)C[C@@H]5C4)nn3)ccc2n1
[A] 9.7

[Q] Another compound to look at: [2H]C([2H])(C1CCOCC1)N1C[C@H]2C[C@H](Nc3nnc(-c4ccc(F)cc4C)cc3C(F)(F)F)C[C@H]2C1
[A] 46.7

[Q] Another compound to look at: Fc1ccc(C2CC2)cc1-c1cc(C(F)(F)F)c(N[C@H]2C[C@@H]3CN(CC4CCOCC4)C[C@@H]3C2)nn1
[A] 1330

[Q] Another compound to look at: Fc1ccc(Cl)c(-c2nnc(N[C@H]3C[C@@H]4CN(CC5CCOCC5)C[C@@H]4C3)cc2C(F)(F)F)c1
[A] 2.06

[Q] Another compound to look at: F[C@@H]1CCN(c2cc(C(F)(F)F)c(N[C@H]3C[C@@H]4CN(CC5CCOCC5)C[C@@H]4C3)nn2)C1
[A] 9.2

[Q] Another compound to look at: [2H]C([2H])([2H])OC([2H])([2H])c1ccc(F)cc1-c1cc(C(F)(F)F)c(N[C@H]2C[C@@H]3CN(CC4CCOCC4)C[C@@H]3C2)nn1
[A] 70.9

[Q] Another compound to look at: [2H][C@@]1(Nc2nnc(-c3ccc4nn(C)cc4c3)cc2C(F)(F)F)C[C@H]2CN(CC3CCOCC3)C[C@H]2C1
[A] 13.2

[Q] Another compound to look at: Cn1cc2cc(-c3cc(C#N)c(N[C@H]4C[C@@H]5CN(C[C@@H]6COCCO6)C[C@@H]5C4)nn3)ccc2n1
[A] 54.9

[Q] Another compound to look at: Cc1ccc(F)cc1-c1cc(C(F)(F)F)c(N[C@H]2C[C@@H]3CN(C[C@@H]4COCCO4)C[C@@H]3C2)nn1
[A] 31.2

[Q] Another compound to look at: Cc1cc(F)c(F)c(-c2cc(C(F)(F)F)c(N[C@H]3C[C@@H]4CN(CC5CCOCC5)C[C@@H]4C3)nn2)c1
[A] 172

[Q] Another compound to look at: COc1ccc(-c2cc(C(F)(F)F)c(N[C@H]3C[C@@H]4CN(CC5CCOCC5)C[C@@H]4C3)nn2)c(C)c1
[A] 38

[Q] Another compound to look at: CCOc1cc(F)c(-c2cc(C(F)(F)F)c(N[C@H]3C[C@@H]4CN(CC5CCOCC5)C[C@@H]4C3)nn2)cc1F
[A] 280

[Q] Another compound to look at: [2H][C@@]1(Oc2nnc(-c3cc(F)ccc3C)cc2C(F)(F)F)C[C@H]2CN(CC3CCOCC3)C[C@H]2C1
[A] 622
